B1: ALDH8A1 (parent)
chain: FTGSQPTAERITQLSAPHCKKLSL

- Variants of: B1
- Assay method text: protein stability index of a GFP-peptide fusion (GPS, HEK-293T) (PSI 1-6); higher = more stable;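 further: lentivirally expressed fusions sorted by FACS into six bins by GFP to DsRed ratio, PSI derived from sequencing read proportions per bin multiplied by bin number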
- Cond: c terminus: a fixed tail appended
Quantity name: protein stability index
Give bare numbers.

Q13S 2.12

Your task in this section: give protein stability index for each listed record.
1. S4N
2. E9D

1. 2.21
2. 2.52

// for each variant below, give its protein stability index
1. G3I
2. T12S
3. A16P

[2.77, 2.79, 2.39]
